- ASSAY SYSTEM: human 5-HT2B receptor (Homo sapiens)
- Construct: expressed in transfected cells; host or cells: HEK293 (ATCC CRL-1573), retroviral infection with pBabepuro-FLAG-h5-HT2BR, polyclonal line
- EXPERIMENT SUMMARY: Functional activity by Ca++-flux (intracellular calcium mobilization), 5-HT2B
- Assay type: cell-based
PARAMETER MEASURED: pEC50
Interpret pEC50 as the negative base-10 log of the concentration measured in mol/L.

Entry c1ccc(CN[C@@H]2C[C@H]2c2ccccc2)cc1 (racemic) , pEC50 reported as 1.97

====

List of pEC50 values.
- ASSAY SYSTEM: human 5-HT2B receptor (Homo sapiens, UniProt P41595)
- Construct: expressed in transfected cells; host or cells: HEK293 (ATCC CRL-1573), retroviral infection with pBabepuro-FLAG-h5-HT2BR, polyclonal line
- Sequence (P41595 whole entry): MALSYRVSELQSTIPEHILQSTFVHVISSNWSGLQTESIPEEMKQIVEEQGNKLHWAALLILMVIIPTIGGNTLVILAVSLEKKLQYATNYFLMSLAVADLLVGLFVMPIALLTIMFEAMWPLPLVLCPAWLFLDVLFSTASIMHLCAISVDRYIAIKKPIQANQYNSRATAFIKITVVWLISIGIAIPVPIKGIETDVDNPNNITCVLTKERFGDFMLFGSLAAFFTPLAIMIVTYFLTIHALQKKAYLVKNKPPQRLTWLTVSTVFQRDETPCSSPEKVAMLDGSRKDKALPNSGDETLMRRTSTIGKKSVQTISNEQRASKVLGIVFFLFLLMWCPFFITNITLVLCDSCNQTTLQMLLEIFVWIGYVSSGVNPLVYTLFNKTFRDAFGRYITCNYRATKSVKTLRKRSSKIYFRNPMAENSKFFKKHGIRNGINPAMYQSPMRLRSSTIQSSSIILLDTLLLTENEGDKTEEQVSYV
- EXPERIMENT SUMMARY: Functional activity by Ca++-flux (intracellular calcium mobilization), 5-HT2B
- Format: cell-based
- EXPERIMENTAL CONTEXT: Ca++-flux, HEK-293 cells; NA = not active; read-out: 5-HT2B human EC50
Interpret pEC50 as the negative base-10 log of the concentration measured in mol/L.

# COMPOUND, RESULT VALUE
records = [
    ("CNC[C@@H]1C[C@H]1c1ccccc1 (racemic)", 6.01),
]

Let us move to another entry and its pEC50.
Entry c1ccc(CNC[C@@H]2C[C@H]2c2ccccc2)cc1 (racemic) , pEC50 reported as 2.99

====

- ASSAY SYSTEM: human 5-HT2C receptor (Homo sapiens, UniProt P28335)
- Construct: expressed in transfected cells; host or cells: HEK-293
- EXPERIMENT SUMMARY: Functional activity by Ca++-flux (intracellular calcium mobilization), 5-HT2C
- Format: cell-based
PARAMETER MEASURED: EC50 (µM)
Entry rule: numbers only, all in µM.

Entry N[C@@H]1C[C@H]1c1ccccc1 (relative stereo) [Tranylcypromine, trans-2-phenylcyclopropylamine, reference compound] , EC50 reported as 0.271

====

- ASSAY SYSTEM: human 5-HT2C receptor (Homo sapiens)
- Construct: expressed in transfected cells; host or cells: HEK-293
- Sequence (P28335 33-458): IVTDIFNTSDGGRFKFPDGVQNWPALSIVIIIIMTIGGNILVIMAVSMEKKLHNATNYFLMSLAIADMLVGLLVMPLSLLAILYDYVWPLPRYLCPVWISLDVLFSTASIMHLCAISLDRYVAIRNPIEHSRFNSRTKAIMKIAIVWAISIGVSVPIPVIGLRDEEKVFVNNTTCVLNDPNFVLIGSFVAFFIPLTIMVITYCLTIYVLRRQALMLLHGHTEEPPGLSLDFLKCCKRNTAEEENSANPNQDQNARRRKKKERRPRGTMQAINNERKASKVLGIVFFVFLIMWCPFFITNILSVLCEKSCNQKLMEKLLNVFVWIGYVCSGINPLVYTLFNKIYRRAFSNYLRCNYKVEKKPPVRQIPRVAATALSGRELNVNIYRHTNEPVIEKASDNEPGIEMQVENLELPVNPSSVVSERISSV
- EXPERIMENT SUMMARY: Functional activity by Ca++-flux (intracellular calcium mobilization), 5-HT2C
- Type: cell-based
- EXPERIMENTAL CONTEXT: ratio of EC50 5-HT2A / 5-HT2C
PARAMETER MEASURED: 2A/2C ratio
Answer using only a numeral; do not append any unit.

Check out these entries, answers already filled in.
# MOLECULE, 2A/2C ratio
rows = [
    ("c1ccc(CN[C@@H]2C[C@H]2c2ccccc2)cc1 (racemic)", 929.5),
    ("CN[C@@H]1C[C@H]1c1ccccc1 (racemic)", 65.8),
]

Entry c1ccc(CNC[C@@H]2C[C@H]2c2ccccc2)cc1 (racemic) , 2A/2C ratio reported as 16.5

Entry CC(C)N[C@@H]1C[C@H]1c1ccccc1 (racemic) , 2A/2C ratio reported as 166

Recorded values, source patent US20090203750A1.
